Hey, just so you know, these numbers are from patent US20170081400A1.

# tested-on: T1, human TL1A extracellular domain with N-terminal HIS and FLAG tag (human, UniProt O95150 72-251)
# T1 sequence: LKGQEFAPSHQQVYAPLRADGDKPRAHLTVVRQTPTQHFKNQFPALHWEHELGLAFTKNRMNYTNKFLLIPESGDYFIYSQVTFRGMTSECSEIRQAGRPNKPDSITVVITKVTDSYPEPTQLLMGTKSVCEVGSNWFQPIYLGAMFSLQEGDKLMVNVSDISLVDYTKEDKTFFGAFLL
# test-method-notes: cell-based or functional assay
value-kind: Antibody IC50, TL1A induced caspase potency assay in TF-1 cells

1) 320-547 (antibody, human IgG1, name in Kabat numbering, V domains shown, full-length human IgG1, lambda) VH: QVQLVQSGAEVKKPGASVKVSCKASGYTFTSYDINWVRQAPGQGLEWMGWLNPNSGYTGYAQKFQGRVTMTADRSTSTAYMELSSLRSEDTAVYYCAREVPETAAFEYWGQGTLVTVSS VL: QSVLTQPPSVSGAPGQRVTISCTSSSSDIGAGLGVHWYQQLPGTAPKLLIEGYYNRPSGVPDRFSGSKSGTSASLTITGLLPEDEGDYYCQSYDGTLSALFGGGTKLTVLG: 4 ng/mL

Below: the item to evaluate.
Which measured Antibody IC50, TL1A induced caspase potency assay in TF-1 cells value corresponds to 320-277 (antibody, human IgG1, V domains shown) VH: QVQLVQSGAEVKKPGASVKVSCKASGYTFTSYDINWVRQAPGQGLEWMGWLNPNSGNTGYAQKFQGRVTMTADRSTSTAYMELSSLRSEDTAVYYCAREVPETAAFEYWGQGTLVTVSS VL: QSVLTQPPSVSGAPGQRVTISCTSSSSDIGAGSGVHWYQQLPGTAPKLLIEGYYNRPSGVPDRFSGSKSGTSASLTITGLLPEDEGDYYCQSYDGTLSALFGGGTKLTVLG ?
3 ng/mL
